Test system: peripheral blood mononuclear cells (PBMC)
Experiment: Anti-proliferative or immunosuppressive activity, BrdU incorporation in PHA-stimulated PBMC
Assay type: cell-based
Conditions: PHA 3 μg/ml, 60 hour compound treatment; read-out: EMV PBMC IC50
Starred links: 1 amine or outer side, 2 acyl side, 3 side chain; linkers in the order of their positions; H or OH if unused. Non-standard residues stand in square brackets, D forms with d. Residues, ends and D or L forms follow the SMILES beside them. X64 = COC[C@@H]1CN(C[C@@H](C)[C@@H](C(=O)[*:2])N(C)[*:1])CCO1; MeBmt = C/C=C/C[C@@H](C)[C@@H](O)[C@H](NC)C(=O)O; NMeL = CN[C@@H](CC(C)C)C(=O)O; NMeV = CN[C@H](C(=O)O)C(C)C; dNMeA = CN[C@H](C)C(=O)O; Abu = CC[C@H](N)C(=O)O
ASSAY METRIC: pIC50
In plain terms, pIC50 is the concentration in mol/L turned into minus its base-10 logarithm.

Need pIC50 of C/C=C/C[C@@H](C)[C@@H](O)[C@H]1C(=O)N[C@@H](CC)C(=O)N(C)[C@H](C)C(=O)N(C)[C@@H]([C@H](C)CN2CCO[C@H](COC)C2)C(=O)N[C@@H](C(C)C)C(=O)N(C)[C@@H](CC(C)C)C(=O)N[C@@H](C)C(=O)N[C@H](C)C(=O)N(C)[C@@H](CC(C)C)C(=O)N(C)[C@@H](CC(C)C)C(=O)N(C)[C@@H](C(C)C)C(=O)N1C [Compound 2.5.34] (cyclo(A[dA][NMeL][NMeL][NMeV][MeBmt][Abu][dNMeA][X64]V[NMeL])) , thanks.
4.72

Data request, read-out pIC50, for C/C=C/C[C@@H](C)[C@@H](O)[C@H]1C(=O)N[C@@H](CC)C(=O)N(C)[C@H](C)C(=O)N(C)[C@@H]([C@H](C)CO[C@H]2CCOC2)C(=O)N[C@@H](C(C)C)C(=O)N(C)[C@@H](CC(C)C)C(=O)N[C@@H](C)C(=O)N[C@H](C)C(=O)N(C)[C@@H](CC(C)C)C(=O)N(C)[C@@H](CC(C)C)C(=O)N(C)[C@@H](C(C)C)C(=O)N1C (stereo in doubt) [Compound 2.16]
4.86

Reference source for all entries: patent US9566312B2
